- Test system: MCF7 TP53 KO 5.6 pool
- PROTOCOL_DETAILS: Drug screening, resazurin, TP53 KO 5.6 pool
- Type: cell-based, Human
- SETTINGS: ten-day drug treatment, 156.25 nM to 10 μM, resazurin fluorescence
Counter-ions that a name gives are not always drawn.
Classes by TP53 KO 5.6 pool (AUC): low value = under 5, medium value = from 5 up to 8, high value = 8 and over

Study these solved cases before continuing.
1. O=NN(CCCl)C(=O)NC1CCCCC1    high value
2. Cc1[nH]c2ccccc2c1CCNCc1ccc(/C=C/C(=O)NO)cc1    low value
3. N.N.O=C([O-])C1(C(=O)[O-])CCC1.[Pt+2]    high value
4. CC1=C2C[C@H]3[C@@H](CC=C4C[C@@H](O)CC[C@@]43C)[C@@H]2CC[C@]12O[C@@H]1C[C@H](C)CN[C@H]1[C@H]2C    high value
5. CC(=O)c1c(C)c2cnc(Nc3ccc(N4CCNCC4)cn3)nc2n(C2CCCC2)c1=O    low value
6. CCCCCOC(=O)Nc1nc(=O)n([C@@H]2O[C@H](C)[C@@H](O)[C@H]2O)cc1F    high value

Where would `O=C(c1cc(Cc2n[nH]c(=O)c3ccccc23)ccc1F)N1CCN(C(=O)C2CC2)CC1` land among the classes by reported TP53 KO 5.6 pool (AUC)?
medium value

// query: `C[C@@H](Oc1cc(-c2cnn(C3CCNCC3)c2)cnc1N)c1c(Cl)ccc(F)c1Cl`
low value

// query: `COc1cc(Nc2c(C#N)cnc3cc(OCCCN4CCN(C)CC4)c(OC)cc23)c(Cl)cc1Cl`
high value

// query: `Nc1nc(Cl)nc2c1ncn2[C@H]1C[C@H](O)[C@@H](CO)O1`
low value

// query: C[C@]12CC[C@@H]3c4ccc(OC(=O)N(CCCl)CCCl)cc4CC[C@H]3[C@@H]1CC[C@@H]2OP(=O)(O)O [Estramustine Phosphate Sodium]
high value

// query: `CC(=O)Nc1cccc(-n2c(=O)n(C3CC3)c(=O)c3c(Nc4ccc(I)cc4F)n(C)c(=O)c(C)c32)c1`
high value

// query: `S=c1nc[nH]c2nc[nH]c12`
medium value

// query: `CS(=O)(=O)CCNCc1ccc(-c2ccc3ncnc(Nc4ccc(OCc5cccc(F)c5)c(Cl)c4)c3c2)o1`
medium value

// query: N[C@@H](Cc1ccc(N(CCCl)CCCl)cc1)C(=O)O [Melphalan Hydrochloride]
medium value

// query: `CNC(=O)c1cc(Oc2ccc(NC(=O)Nc3ccc(Cl)c(C(F)(F)F)c3)c(F)c2)ccn1`
medium value

// query: CC[C@@]1(O)C(=O)OCc2c1cc1n(c2=O)Cc2cc3c(CN(C)C)c(O)ccc3nc2-1 [Topotecan Hydrochloride]
low value

// query: C[C@]12CC[C@@H]3c4ccc(O)cc4C[C@@H](CCCCCCCCC[S+]([O-])CCCC(F)(F)C(F)(F)F)[C@H]3[C@@H]1CC[C@@H]2O (some centres unmarked)
low value
